ASSAY PROTOCOL: clinical
CONDITION: human, in vivo, iv, CL
Square brackets hold non-standard residues; d marks the D form. Peptide text beside a SMILES is read from it. dPhe(4-Cl) = N[C@H](Cc1ccc(Cl)cc1)C(=O)O; d2Nal = N[C@H](Cc1ccc2ccccc2c1)C(=O)O; dCit = NC(=O)NCCC[C@@H](N)C(=O)O; d3Pal = N[C@H](Cc1cccnc1)C(=O)O
OUTCOME MEASURE: log10 of clearance (log10 of the value in mL/min/kg)

{"COMPOUND": "CC(=O)N[C@H](Cc1ccc2ccccc2c1)C(=O)N[C@H](Cc1ccc(Cl)cc1)C(=O)N[C@H](Cc1cccnc1)C(=O)N[C@@H](CO)C(=O)N[C@@H](Cc1ccc(O)cc1)C(=O)N[C@H](CCCNC(N)=O)C(=O)N[C@@H](CC(C)C)C(=O)N[C@@H](CCCNC(=N)N)C(=O)N1CCC[C@H]1C(=O)N[C@H](C)C(N)=O [CETRORELIX] (Ac-[d2Nal][dPhe(4-Cl)][d3Pal]SY[dCit]LRP[dA]-NH2)", "READOUT NUMBER": 0.08}
{"COMPOUND": "C#CCN(C)[C@H](C)Cc1ccccc1", "READOUT NUMBER": 1.30}
{"COMPOUND": "O=C(Cc1cccs1)N[C@@H]1C(=O)N2C(C(=O)[O-])=C(C[n+]3ccccc3)CS[C@H]12", "READOUT NUMBER": 0.52}
{"COMPOUND": "O=C1CN=C(c2ccccc2Cl)c2cc([N+](=O)[O-])ccc2N1", "READOUT NUMBER": -0.06}
{"COMPOUND": "C[C@@H](O)[C@H]1C(=O)N2C(C(=O)O)=C(S[C@@H]3CN[C@H](C(=O)N(C)C)C3)[C@H](C)[C@H]12", "READOUT NUMBER": 0.59}
{"COMPOUND": "CCOc1ccccc1OCC1CNCCO1 (stereo unspecified)", "READOUT NUMBER": 0.32}

---

ASSAY PROTOCOL: clinical
CONDITION: human, in vivo, iv, t1/2
Numbered stars: 1 amine (or outer) side, 2 acyl side, 3 side chain; on linkers, the order of the positions; unused ones are H or OH. Bridge positions count the residues as written; N and C are the ends. Square brackets hold non-standard residues; d marks the D form. Peptide text beside a SMILES is read from it. * marks the point of attachment. X2 = O=C1C[C@@H](C(=O)[*:2])N([*:1])C[C@H]1CS[C@@H]1CN2CCC1CC2; NMePhe(4-NMe2) = CN[C@@H](Cc1ccc(N(C)C)cc1)C(=O)O; Picolinoyl(3-OH) = O=C(c1ncccc1O)*; Phg = N[C@H](C(=O)O)c1ccccc1; dAbu = CC[C@@H](N)C(=O)O
Listed below: log10(half-life) values for each entry.
OUTCOME MEASURE: log10(half-life) (log10 of the value in h)

{"COMPOUND": "COc1ccccc1OCCNCC(O)COc1cccc2[nH]c3ccccc3c12 (stereo unspecified)", "OUTCOME MEASURE": "log10(half-life)", "READOUT NUMBER": 0.38}
{"COMPOUND": "CCCCCN(CCCOC)C(=O)[C@@H](CCC(=O)O)NC(=O)c1ccc(Cl)c(Cl)c1 [DEXLOXIGLUMIDE]", "OUTCOME MEASURE": "log10(half-life)", "READOUT NUMBER": 0.08}
{"COMPOUND": "Nc1c(CC(=O)O)cccc1C(=O)c1ccc(Br)cc1", "OUTCOME MEASURE": "log10(half-life)", "READOUT NUMBER": 0.41}
{"COMPOUND": "COc1cc(OC)c(C(=O)CCCN2CCCC2)c(OC)c1", "OUTCOME MEASURE": "log10(half-life)", "READOUT NUMBER": 0.52}
{"COMPOUND": "c1ccc(C2(N3CCCCC3)CCCCC2)cc1", "OUTCOME MEASURE": "log10(half-life)", "READOUT NUMBER": 1.20}
{"COMPOUND": "CC[C@H]1NC(=O)[C@@H](NC(=O)c2ncccc2O)[C@@H](C)OC(=O)[C@H](c2ccccc2)NC(=O)[C@@H]2CC(=O)[C@H](CS[C@@H]3CN4CCC3CC4)CN2C(=O)[C@H](Cc2ccc(N(C)C)cc2)N(C)C(=O)[C@@H]2CCCN2C1=O [QUINUPRISTIN] ({Picolinoyl(3-OH)}-T[dAbu]P[NMePhe(4-NMe2)][X2][Phg]; ester 1-C)", "OUTCOME MEASURE": "log10(half-life)", "READOUT NUMBER": -0.06}
{"COMPOUND": "CN1CCN(C(=O)OC2c3nccnc3C(=O)N2c2ccc(Cl)cn2)CC1 (stereo unspecified)", "OUTCOME MEASURE": "log10(half-life)", "READOUT NUMBER": 0.72}
{"COMPOUND": "CCN(CC)CC#CCOC(=O)C(O)(c1ccccc1)C1CCCCC1 (stereo unspecified)", "OUTCOME MEASURE": "log10(half-life)", "READOUT NUMBER": 0.86}
{"COMPOUND": "C=C1CC[C@@]2(O)[C@H]3Cc4ccc(O)c5c4[C@@]2(CCN3CC2CC2)[C@H]1O5", "OUTCOME MEASURE": "log10(half-life)", "READOUT NUMBER": 0.94}
{"COMPOUND": "CC(C)(C)NCC(O)COc1cccc2c1CC(O)C(O)C2 (stereo unspecified)", "OUTCOME MEASURE": "log10(half-life)", "READOUT NUMBER": 0.96}
{"COMPOUND": "O=[N+]([O-])O[C@H]1CO[C@H]2[C@@H]1OC[C@H]2O[N+](=O)[O-] [ISOSORBIDE DINITRATE]", "OUTCOME MEASURE": "log10(half-life)", "READOUT NUMBER": 0.23}
{"COMPOUND": "CC1(C)S[C@@H]2[C@H](NC(=O)[C@H](C(=O)O)c3ccsc3)C(=O)N2[C@H]1C(=O)O", "OUTCOME MEASURE": "log10(half-life)", "READOUT NUMBER": 0.00}
{"COMPOUND": "Cc1cccc(N2CC(CO)OC2=O)c1 (stereo unspecified)", "OUTCOME MEASURE": "log10(half-life)", "READOUT NUMBER": 0.20}
{"COMPOUND": "CC1(C)S[C@@H]2[C@H](/N=C/N3CCCCCC3)C(=O)N2[C@H]1C(=O)O", "OUTCOME MEASURE": "log10(half-life)", "READOUT NUMBER": 0.04}
{"COMPOUND": "C[C@H]1O[C@@H](n2cc(F)c(=O)[nH]c2=O)[C@H](O)[C@@H]1O", "OUTCOME MEASURE": "log10(half-life)", "READOUT NUMBER": -0.46}
{"COMPOUND": "C[C@H](N[C@@H](CCc1ccccc1)C(=O)O)C(=O)N1CCC[C@H]1C(=O)O [ENALAPRILAT ANHYDROUS]", "OUTCOME MEASURE": "log10(half-life)", "READOUT NUMBER": 1.59}
